- Test system: HCC-2998 colon
- run.description: NCI tumour cell line growth inhibition, 48 h
experimental.readout: TGI (µM)

>>> measurement("CC1=C(C(=O)c2ccccc2)C23C(=O)N(c4ccccc4)C(=O)C2=C(O)C=CC3(O)N1 (stereo not given)")
56.4
>>> measurement("C=C1CCC2C(C)(COC(=O)CC)C(OC(=O)CC)CCC2(C)C1C/C=C1/C(=O)OCC1OC(=O)CC (stereo not given)")
13.9
>>> measurement("Cc1cc(CC(C)CC(C)(C)C)n(O)c(=O)c1 (stereo not given) (tested in a mixture with another compound)")
17.7
>>> measurement("OCC(O)c1nc2ccc3[nH]ncc3c2c2c1CCCC2 (stereo not given)")
2.89
>>> measurement("Cc1ccc(C)c(C2NC(=O)c3ccccc3N2)c1 (stereo not given)")
31.4
>>> measurement("CCN(CC)CCCC(C)N=C(C1=C(C(=NC(C)CCCN(CC)CC)c2cccc(OC)c2)C(=O)NC1=O)c1cccc(OC)c1 (stereo not given)")
2.2
>>> measurement("CCC(CNc1cc(OC)cc2cccnc12)NC1CCCCC1 (stereo not given)")
41.4
>>> measurement("COC(=O)c1cc(O)c2c(c1C(=O)OC)C[C@H]1[C@@H]3CC=C4C[C@@H](O)CC[C@]4(C)[C@H]3CC[C@]21C")
16
>>> measurement("FC(F)(F)C1(Br)C(c2ccccc2)=C1c1ccccc1")
38.4
